# credit: ChEMBL document CHEMBL1201862

Here's what we have: AC50 numbers for Cytochrome P450 2C9 (Homo sapiens, UniProt P11712).

q: For the compound Cc1ccc(C2CC(C(F)(F)F)n3nc(C(=O)NCCN4CCOCC4)cc3N2)cc1 (configuration not stated) , what AC50 is on record?
a: 12.6 µM (inconclusive)

q: Request: `Cc1nc(SCC(=O)c2ccc(F)cc2)c([N+](=O)[O-])[nH]1`
a: 20 µM (inconclusive)

q: Another compound: `COC(=O)N1CCC[C@@]2(CCN(C(=O)Nc3cccc(F)c3)C2)C1`
a: 39.8 µM (inconclusive)

q: Another compound: `N=C1c2ccccc2CN1NC(=O)c1ccc(F)cc1`
a: 17.8 µM (inconclusive)

q: Field entry: `COC(=O)c1cc(Br)c(=O)n(CCN2CCCC2)c1`
a: 39.8 µM (inconclusive)

q: Please do the same for `Cc1nn(-c2ccccc2)c(Cl)c1C(=O)Nc1c(C)n(C)n(-c2ccccc2)c1=O` as well.
a: 20 µM (inconclusive)

q: What about `COc1ccccc1Nc1nc(-c2sc(NC(=O)c3ccc([N+](=O)[O-])cc3)nc2C)cs1` ?
a: 3.55 µM (inconclusive)

q: Now the compound `O=C(NNC(=O)c1cc2cc3ccccc3nc2s1)c1cccc(Cl)c1`
a: 1.41 µM (inconclusive)

q: For CC1Cc2ccccc2N1C(=O)CSc1nnnn1C(C)C (configuration not stated) then?
a: 14.1 µM (inconclusive)

q: Let us now turn to `Nc1nc(Cl)cc(N2CCC(c3cc(-c4ccc(Cl)cc4Cl)[nH]n3)CC2)n1`
a: 22.4 µM (inconclusive)

q: And then `CCCOC(=O)c1c(NC(=O)/C=C/c2cnn(C)c2C)sc(C(=O)OCC)c1C` , what is it?
a: 39.8 µM (inconclusive)

q: Next entry: COC(=O)C1=C(N)Oc2cc(C)n(CC3CCCO3)c(=O)c2C1c1ccccc1OC (configuration not stated)
a: 28.2 µM (inconclusive)

q: // repeat for `CCc1nnc(SCc2ccc(OC(C)C)cc2)n1N` and report
a: 0.00562 µM (inconclusive)

q: Thanks! And N#Cc1cccc(C(c2nnnn2C2CCCC2)N2CCCCCC2)c1 (configuration not stated) ?
a: 35.5 µM (inconclusive)

q: Can you handle `CC(C)NC(=O)CSc1nnc(C2CC2)n1-c1ccccc1` next?
a: 31.6 µM (inconclusive)

q: Request: `Cn1cc(/C=C2/SC(=O)N(CC(=O)Nc3ccc4c(c3)OCO4)C2=O)c2ccccc21`
a: 7.08 µM (inconclusive)

q: What about `CN(C)S(=O)(=O)c1ccc2c(c1)/C(=C/c1cc3c([nH]1)CCCC3)C(=O)N2` ?
a: 10 µM (inconclusive)

q: Continue with `O=C(O)c1nnsc1-c1ccc(-c2snnc2C(=O)O)cc1`
a: 7.94 µM (inconclusive)

q: // next record COc1ccc(-c2cc(=O)c3c(O)cc(O)cc3o2)cc1 [ACACETIN]
a: 1.26 µM (inconclusive)

q: Same thing, different compound: `CCSc1ncnc2c1sc1nc(-c3ccco3)c3c(c12)CC(C)(C)OC3`
a: 2 µM (inconclusive)

q: Entry `COc1ccc(N2CCN(c3nc(Nc4ccc(F)cc4)nc(OC)n3)CC2)cc1` please
a: 3.55 µM (inconclusive)

q: Same again, this time with COc1ccc(-n2nc(C(F)(F)F)cc2-c2ccc(Cl)cc2)cc1 [SC-560]
a: 25.1 µM (inconclusive)
